- targetDesc: DnfA (Alcaligenes ammonioxydans)
- Sequence (A0ABX8SXK4 1-317): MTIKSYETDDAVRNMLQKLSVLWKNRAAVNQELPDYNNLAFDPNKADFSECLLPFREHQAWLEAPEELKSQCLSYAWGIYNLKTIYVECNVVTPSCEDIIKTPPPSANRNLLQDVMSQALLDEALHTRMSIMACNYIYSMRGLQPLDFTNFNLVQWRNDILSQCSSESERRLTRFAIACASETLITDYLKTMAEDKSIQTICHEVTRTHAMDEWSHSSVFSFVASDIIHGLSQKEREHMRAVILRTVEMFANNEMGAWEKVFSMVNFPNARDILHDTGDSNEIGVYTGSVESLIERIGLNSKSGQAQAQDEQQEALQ
propertyLabel: pKd
Units for pKd: none; it is -log10 of a concentration expressed in mol/L.

Query block: # get_value(readout='pKd', item= NO [hydroxylamine] )
Result block: 6.80
